Assay method text: soluble on expression in E. coli; label from the status in PepcDB or PDB records

{"Residue string": "MRVLVSGGGTGGHIYPALALIREIKKLNPEARFLYIGTENGLESTIVPKAGIPFQSIVISGFKRKISLDNVKTVMRFLKGVQDSKRYIRRFNPDIVIGTGGYVCGPVVYAAAKLGIPTIVHEQNSVPGVTNKFLSRYVDKVAVCFEAAAEHFPQSKVVMTGNPRASEVMDQNGMKGKRSVGLSLPKKSVLIFGGSRGARPINDAFVEAIEQFGNKSYEILYVTGEVHYDKVMEAVKQKGNPNNVIIKPFIHNMPEVLTGVDLVVSRAGATTLAELTALGKPSVLIPSPYVTNNHQEKNARSVVDKGAAKMLLEKDLTAETLIRDIDEILLDAQTLQNMKLAAGQLGIPDAANKLYEVMNKLVKK", "soluble on expression in E. coli": "not soluble"}
{"Residue string": "TYKKPSDAELKRTLTEEQYQVTQNSATEYAFSHEYDHLFKPGIYVDVVSGEPLFSSADKYDSGSGWPSFTRPIDAKSVTEHDDFSYNMRRTEVRSHAADSHLGHVFPDGPRDKGGLRYSINGASLKFIPLEQMDAAGYGALKSKVK", "soluble on expression in E. coli": "soluble"}
{"Residue string": "MSLRVTLREVAQEAGVSLKTASNVINHSGRMADATREKVQDVIDRLGYRVNVSARNLNRGKTGFITLAVPSLTAPYLAELANRVIDAARIYGYSVYITTYAEGSAQGARALLRNFNATVSDGMILSISEVEDLDPEDLDVDYPLVCVGARSTHGKADHVTPDDVQEARLAAQYLFDHGATNLAVIGSRTDPEHILELRDAVEGNAQLRMRGIFEACADQGVELDTRLVPNVGQDWTIGSGARMTQRIVDSGIPFDGIVAFNDQLALGALFTLAANGIAVPDRVQVIGFDNNEEAAYFQPPLTTMDSCLDWIAPTAVSRIINRIDGSRTLEPELITTQSRIIARATTRAEGHHHHHH", "soluble on expression in E. coli": "soluble"}
{"Residue string": "MGADLRYNMEITLEEAFAGKTAQIRVPTSITCDVCSGSGAKPGTQPKTCATCQGSGRVRAAQGFFSVERTCPTCHGRGQTISDPCGKCHGQGRVTEERSLSVNIPSGIEDGTRIRLQGEGEAGMRGGPAGDLYIFLSVRPHEFFQRDGADLYCTVPISMTTAALGGTFDVTTLDGTKSRVTVPEGTQPGKQFRLKGKGMPVLRSAQTGDLYIQIQIETPQKLSKRQRELLQEFEQLSSKENNPLEHHHHHH", "soluble on expression in E. coli": "soluble"}
{"Residue string": "VLAGIDALESSGFAAVAGKRIALVTNRSGVDRLGRRTIDLLAHAPGARLVAIFAPEHGLGTDVDAPFGDAIDADTNVVVHSLYGSRRRIAPEALSNVDVLVFDIQDAGVRFFTYLATLGYVLEAAAAAHVPVVVLDRPNPLGGDVVGGPVSDADIGSFTNYYPLPLAPGMTIGELAKLFDDRLRIGADLVVVPMENYRRWMRYGDTGLGGLPPSPNLRDAAALSLYPDIGLVEGADVSVGRGTATPFGVLGAPWIDGRALADDLRAMHLSATFTPARFVPTEGPYRGALCEGVRIERLPGPVRPGRIGLAVALALHRRYPDRFRIDAIRASVGSRAVADMLADGRPLDEIEQVVDTQNAAFSRERAAYLLY", "soluble on expression in E. coli": "not soluble"}
{"Residue string": "MGSDKIHHHHHHMLSNRELLQKLLKGIETGDPAAAAVVNEEKYIQHYPQTHEGSEGLAVLFARLAKTNPRVRFVRVFEDGDFAFAHNEYDFASLRVAFEVFRFENGRAVEHWDNIQPMLGPNPSGRGMLDGVTQITDLERTEANRALVRDFAQRVLVGRQLDFLGSCVDDGLIQHDPEIADGRAAYRAALEAVTNGQPRLHYTRLHRVLAEGNFVLCMCEGERDGVHSSFYDLFRVENDTIIEHWNTIEAIAPRNEWKNENGKF", "soluble on expression in E. coli": "not soluble"}
{"Residue string": "MDQSIRHLLGNLSLFTPPEEAAVYAEQHAVNKNEPLYFVVFPQADTALSELLVAGYQKLLENNFWGLTNSTQEAKDLMSRYGNTGLELYAHSRGSMTLGNMLYSFQQQGVHGIANENTTINLYGPAFNVLVASDLLGYVSDGKQTTVGFDGHRYDFVSRWIGGNSYTYKTIPSDSNAWKEWWRMFTDPDNPHTCLGDANAICNTLYGSSHLKQKP", "soluble on expression in E. coli": "not soluble"}
{"Residue string": "MENKVVEEKQVDKIPLMSPCKMGKFELCHRVVLAPLTRQRSYGYIPQPHAILHYSQRSTNGGLLIGEATVISETGIGYKDVPGIWTKEQVEAWKPIVDAVHAKGGIFFCQIWHVGRVSNKDFQPNGEDPISCTDRGLTPQIMSNGIDIAHFTRPRRLTTDEIPQIVNEFRVAARNAIEAGFDGVEIHGAHGYLIDQFMKDQVNDRSDKYGGSLENRCRFALEIVEAVANEIGSDRVGIRISPFAHYNEAGDTNPTALGLYMVESLNKYDLAYCHVVEPRMKTAWEKIECTESLVPMRKAYKGTFIVAGGYDREDGNRALIEDRADLVAYGRLFISNPDLPKRFELNAPLNKYNRDTFYTSDPIVGYTDYPFLETMT", "soluble on expression in E. coli": "soluble"}
{"Residue string": "MNYEGKTKIVKVTGDYALLEFKDDITAGDGLKHDVLTGKGSICAETTAILMKYLSEKGIKTHLVEYIPPRTLKVIPLKMFPLEVVVRLKKAGSFVRRYGGAEGEDLPVPLVEFFIKDDERHDPMVCVDHLEILGIATKKQAEKMKEAAVKITLALKEFFERANFELWDIKYEFGLDKDGNVVLGDEISPDTFRLRKKGEIFDKDVYRRDLGDPLKKYREVLELCRSLNSQ", "soluble on expression in E. coli": "soluble"}
{"Residue string": "MWFRNLLVYRLTQDLQLDADSLEKALGEKSARPCASQELTTYGFTAPFGKGPDAPLVHVSQDFFLISARKEERILPGSVVRDALKEKVDEIEAQQMRKVYKKERDQLKDEIVQTLLPRAFIRRSSTFAAIAPSLGLILVDSASAKKAEDLLSTLREALGSLPVRPLSVKVAPTATLTDWVKTQEAAGDFHVLDECELRDTHEDGGVVRCKRQDLTSEEIQLHLTAGKLVTQLSLAWSDKLSFVLDDKLAVKRLRFEDLLQEQAEKDGGEDALGQLDASFTLMMLTFAEFLPALFEALGGEEIPQGV", "soluble on expression in E. coli": "soluble"}
